Can you tell me IC50 for the items I'm about to list?
System: DU-145
Assay: Antiproliferative activity against human DU145 cells assessed as reduction in cell growth treated every 2 days for 4 days by hemocytometry
Format: functional, cell-based

Problem: Entry CC(C)Oc1ccccc1/C=C/C(=O)c1cc(Br)ccc1O : reported IC50 = ?
Solution: 5.03 µM

Problem: Entry COc1ccc(O)c(C(=O)/C=C/c2ccccc2OC)c1 : reported IC50 = ?
Solution: > 10 µM

Problem: Entry COc1ccccc1/C=C/C(=O)c1cc(Br)ccc1O : reported IC50 = ?
Solution: 6.13 µM

Problem: Entry O=C1CC(c2ccccc2O)Oc2ccccc21 (stereo not given) [2'-HYDROXY-FLAVANONE] : reported IC50 = ?
Solution: 4.11 µM

Problem: Entry O=C(/C=C/c1ccccc1O)c1cc(Cl)ccc1O : reported IC50 = ?
Solution: 4.5 µM
